# assayOverview: Pharmacokinetic studies in human, Compound I in plasma by LC/MS/MS
# Assay type: in vivo
# testSettings: human, plasma, iv, 475 mg/m2, Group 9, 475 mg/m^2 IV, Day 1, mean, n = 5
# Protocol: […] Levels of Compound I in patient's plasma were analyzed by liquid chromatography tandem mass spectrometry (LC/MS/MS) assay. […] The concentrations of Compound I in human plasma samples collected from subjects of as discussed above. Compound I concentrations in plasma samples were measured based on 9 levels of calibration standards from 5.00 to 5000 ng/mL, and 3 levels of QC at 15.0 ng/mL (low), 2500 ng/mL (mid), and 4000 ng/mL (high). […]
assayReadout: Cmax
Field note: include the unit after the figure.

input: Determine from records and report Cmax for Cc1cnc(CNC(=O)c2c(=O)c3ccc(N4CCCN(C)CC4)nc3n3c2sc2ccccc23)cn1 [Compound I]
output: 1750 ng/mL
